target: various mutants of kinase EGFR (BaF3 cell lines stably transfected with kinase) (Homo sapiens, UniProt P00533, T790M/C797S, form not given); construct: other: BaF3 cells stably transfected with EGFR Δ19Del/T790M/C797S; MTS, 48; other: BaF3 cell line stably transfected with EGFR Δ19Del/T790M/C7; assay: Growth inhibitory activity of compounds on BaF3 cell lines stably transfected with kinase (MTS, 48 h); type: cell-based; settings: BaF3 cells stably transfected with EGFR Δ19Del/T790M/C797S, read-out: IC50, growth inhibition, Δ19Del/T790M/C797S
Sequence (P00533 with tags, fused parts or gaps DEL746-750/T790M/C797S, form open): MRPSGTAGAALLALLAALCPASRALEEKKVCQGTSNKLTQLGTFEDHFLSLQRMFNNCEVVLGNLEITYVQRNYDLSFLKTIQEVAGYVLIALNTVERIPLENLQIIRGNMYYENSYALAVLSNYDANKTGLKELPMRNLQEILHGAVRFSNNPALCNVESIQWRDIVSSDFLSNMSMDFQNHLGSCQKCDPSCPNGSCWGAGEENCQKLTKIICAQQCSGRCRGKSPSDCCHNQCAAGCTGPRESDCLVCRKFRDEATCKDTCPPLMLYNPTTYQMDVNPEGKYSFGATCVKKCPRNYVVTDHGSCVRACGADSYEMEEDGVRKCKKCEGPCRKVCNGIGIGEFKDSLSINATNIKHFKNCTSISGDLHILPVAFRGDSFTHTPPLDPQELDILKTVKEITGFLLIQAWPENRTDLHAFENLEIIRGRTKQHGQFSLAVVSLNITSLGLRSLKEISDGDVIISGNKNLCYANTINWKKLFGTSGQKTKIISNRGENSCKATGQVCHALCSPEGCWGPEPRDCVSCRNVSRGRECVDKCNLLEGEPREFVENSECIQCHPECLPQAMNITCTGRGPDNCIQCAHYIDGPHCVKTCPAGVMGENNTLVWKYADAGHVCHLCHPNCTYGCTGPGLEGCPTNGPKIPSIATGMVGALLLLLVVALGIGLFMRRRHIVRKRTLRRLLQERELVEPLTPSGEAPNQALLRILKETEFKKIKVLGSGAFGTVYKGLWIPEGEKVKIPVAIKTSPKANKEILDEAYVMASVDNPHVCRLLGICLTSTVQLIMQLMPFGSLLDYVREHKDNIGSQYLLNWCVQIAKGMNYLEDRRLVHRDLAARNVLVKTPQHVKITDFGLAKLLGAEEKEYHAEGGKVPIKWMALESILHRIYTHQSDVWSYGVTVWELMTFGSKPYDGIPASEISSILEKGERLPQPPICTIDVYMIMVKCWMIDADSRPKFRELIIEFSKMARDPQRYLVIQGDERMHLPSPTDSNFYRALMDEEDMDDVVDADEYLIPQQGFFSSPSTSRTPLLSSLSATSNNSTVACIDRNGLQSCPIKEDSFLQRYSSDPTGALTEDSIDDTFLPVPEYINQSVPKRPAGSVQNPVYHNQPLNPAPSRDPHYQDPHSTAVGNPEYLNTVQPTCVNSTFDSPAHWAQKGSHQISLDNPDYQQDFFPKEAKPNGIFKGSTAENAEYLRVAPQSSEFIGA
# IC50 listing for each entry below

Compound | IC50
COc1cc(N2CCC(N(C)C)C2)c(C)cc1Nc1ncc(Cl)c(Nc2ccc3nccnc3c2N(C)S(=O)(=O)C(F)(F)F)n1 (centres unmarked) [Compound I-268] | 50 to 500 nM
COc1cc(N2CCC(N3CCN(C)CC3)CC2)ccc1Nc1ncc(Cl)c(Nc2ccc3nccnc3c2N(C)S(=O)(=O)C2CC2)n1 [Compound I-237] | 50 to 500 nM
COc1cc(N2CCC(N3CCN(C)CC3)CC2)c(C)cc1Nc1ncc(Br)c(Nc2ccc3nccnc3c2N(C)S(=O)(=O)C(C)C)n1 [Compound I-134] | ≤ 50 nM
CN1CCN(C2CCN(c3cccc(Nc4ncc(Br)c(Nc5ccc6nccnc6c5N(C)S(C)(=O)=O)n4)c3)CC2)CC1 [Compound I-78] | 50 to 500 nM
COc1cc(N2CCOCC2)ccc1Nc1ncc(Br)c(Nc2ccc3nccnc3c2N(C)S(C)(=O)=O)n1 [Compound I-45] | ≤ 50 nM
COc1cc(N2CCC(N3CCN(C)CC3)CC2)c(C)cc1Nc1ncc(F)c(Nc2ccc3nccnc3c2N(C)S(C)(=O)=O)n1 [Compound I-25] | ≤ 50 nM
COc1cc2c(cc1Nc1ncc(Br)c(Nc3ccc4nccnc4c3N(C)S(C)(=O)=O)n1)CN(C)CC2 [Compound I-89] | 500 to 2500 nM
CCN(c1c(Nc2nc(Nc3ccc(N4CCC(N5CCN(C)CC5)CC4)nc3OC)ncc2Cl)ccc2nccnc12)S(C)(=O)=O [Compound I-225] | ≤ 50 nM
COc1cc(N2CCC(N3CCN(C)CC3)CC2)c(C)cc1Nc1ncc(C(F)(F)F)c(Nc2ccc3nccnc3c2N(C)S(C)(=O)=O)n1 [Compound I-34] | ≤ 50 nM
CCc1cc(Nc2ncc(Br)c(Nc3ccc4nccnc4c3N(C)S(C)(=O)=O)n2)ccc1N1CCC(N2CCN(C)CC2)CC1 [Compound I-286] | ≤ 50 nM
COc1cc(N2CCC(N3CCN(C)CC3)CC2)c(C2CC2)cc1Nc1ncc(C2CC2)c(Nc2ccc3nccnc3c2N(C)S(C)(=O)=O)n1 [Compound I-292] | 50 to 500 nM
CCc1cc(Nc2ncc(Cl)c(Nc3ccc4nccnc4c3N(C)S(=O)(=O)C3CC3)n2)c(OC(F)(F)F)cc1N1CCC(N2CCN(C)CC2)CC1 [Compound I-121] | 50 to 500 nM
COc1cc(N2CCC(N3CCN(C)CC3)CC2)c(C)cc1Nc1ncc(Br)c(Nc2ccc3nccnc3c2N(C)S(C)(=O)=O)n1 [Compound I-2] | ≤ 50 nM
CN(c1c(Nc2nc(Nc3ccn(C)n3)ncc2Br)ccc2nccnc12)S(C)(=O)=O [Compound I-66] | 50 to 500 nM
CCc1cc(Nc2ncc(OC)c(Nc3ccc4nccnc4c3N(C)S(C)(=O)=O)n2)c(OC)cc1N1CCN(C)CC1 [Compound I-283] | ≤ 50 nM
CCc1cc(Nc2ncc(C(F)(F)F)c(Nc3ccc4nccnc4c3N(C)S(C)(=O)=O)n2)c(OC)cc1N1CCC(N(C)C)C1 (centres unmarked) [Compound I-210] | ≤ 50 nM
COc1cc(N2CCC(N3CCN(C)CC3)CC2)ccc1Nc1ncc(F)c(Nc2ccc3nccnc3c2N(C)S(=O)(=O)C2CC2)n1 [Compound I-247] | 50 to 500 nM
CCc1cc(Nc2ncc([N+](=O)[O-])c(Nc3ccc4nccnc4c3N(C)S(C)(=O)=O)n2)c(OC)cc1N1CCC(N(C)C)CC1 [Compound I-193] | ≤ 50 nM
CCc1cc(Nc2ncc(C(F)(F)F)c(Nc3ccc4nccnc4c3N(C)S(C)(=O)=O)n2)c(OC)cc1N1CCN(C)CC1 [Compound I-208] | ≤ 50 nM
CCc1cc(Nc2ncc(Br)c(Nc3ccc4nccnc4c3N(C)S(=O)(=O)C3CC3)n2)c(OC)cc1N1CCC(N(C)C)C1 (centres unmarked) [Compound I-108] | ≤ 50 nM
CN(c1c(Nc2nc(NC3CC3)ncc2Br)ccc2nccnc12)S(C)(=O)=O [Compound I-73] | 500 to 2500 nM
COc1cc(N2CCC(N3CCN(C)CC3)CC2)c(Cc2ccccc2)cc1Nc1ncc(Cl)c(Nc2ccc3nccnc3c2N(C)S(C)(=O)=O)n1 [Compound I-168] | 500 to 2500 nM
C=Cc1cc(Nc2ncc(C3CC3)c(Nc3ccc4nccnc4c3N(C)S(C)(=O)=O)n2)c(OC(F)(F)F)cc1N1CCC(N2CCN(C)CC2)CC1 [Compound I-271] | ≤ 50 nM
